Assay: Inhibition of binding of biotinylated chicken galectin-8L to surface immobilized asialofetuin by solid phase assay
Design: species or system Gallus gallus
measured_parameter: IC50 (µM)
// units = µM; emit number, no label

O=C1NCc2ccc(cc2)CNC(=O)[C@@H]2O[C@@H](C/C=C/C[C@H]3O[C@H]1[C@@H](OCc1cn([C@@H]4O[C@H](CO)[C@@H](O[C@@H]5O[C@H](CO)[C@H](O)[C@H](O)[C@H]5O)[C@H](O)[C@H]4O)nn1)[C@H](OCc1ccccc1)[C@H]3OCc1ccccc1)[C@@H](OCc1ccccc1)[C@H](OCc1ccccc1)[C@H]2OCc1cn([C@@H]2O[C@H](CO)[C@@H](O[C@@H]3O[C@H](CO)[C@H](O)[C@H](O)[C@H]3O)[C@H](O)[C@H]2O)nn1; 600

The value of IC50 measured for the compound C=CC[C@@H]1O[C@@H](C(=O)NCc2ccc(CNC(=O)[C@H]3O[C@H](CC=C)[C@H](OCc4ccccc4)[C@@H](OCc4ccccc4)[C@@H]3OCc3cn([C@@H]4O[C@H](CO)[C@@H](O[C@@H]5O[C@H](CO)[C@H](O)[C@H](O)[C@H]5O)[C@H](O)[C@H]4O)nn3)cc2)[C@H](OCc2cn([C@@H]3O[C@H](CO)[C@@H](O[C@@H]4O[C@H](CO)[C@H](O)[C@H](O)[C@H]4O)[C@H](O)[C@H]3O)nn2)[C@@H](OCc2ccccc2)[C@@H]1OCc1ccccc1 turned out to be 2400

The value of IC50 measured for the compound O=C(/C=C/C(=O)N[C@@H]1O[C@H](CO)[C@@H](O[C@@H]2O[C@H](CO)[C@H](O)[C@H](O)[C@H]2O)[C@H](O)[C@H]1O)N[C@@H]1O[C@H](CO)[C@@H](O[C@@H]2O[C@H](CO)[C@H](O)[C@H](O)[C@H]2O)[C@H](O)[C@H]1O turned out to be 4500

The value of IC50 measured for the compound OC[C@H]1O[C@@H](O[C@H]2[C@H](O)[C@@H](O)[C@H](n3cc(-c4ccc(-c5cn([C@@H]6O[C@H](CO)[C@@H](O[C@@H]7O[C@H](CO)[C@H](O)[C@H](O)[C@H]7O)[C@H](O)[C@H]6O)nn5)cc4)nn3)O[C@@H]2CO)[C@H](O)[C@@H](O)[C@H]1O turned out to be 1800

====

Target: Galectin-3 (Gallus gallus, UniProt A4GTP0)
Sequence (A4GTP0 whole entry): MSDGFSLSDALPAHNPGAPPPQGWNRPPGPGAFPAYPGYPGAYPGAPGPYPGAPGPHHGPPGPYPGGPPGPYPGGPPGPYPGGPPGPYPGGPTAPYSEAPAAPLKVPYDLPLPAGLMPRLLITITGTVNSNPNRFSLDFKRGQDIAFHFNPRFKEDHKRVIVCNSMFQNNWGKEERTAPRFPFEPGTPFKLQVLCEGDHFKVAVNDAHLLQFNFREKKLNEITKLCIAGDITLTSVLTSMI
Experiment: Inhibition of binding of biotinylated truncated chicken galectin-3 to surface immobilized asialofetuin by solid phase assay
measured_parameter: IC50 (mM)
// units = mM; emit number, no label

C=CC[C@@H]1O[C@@H](C(=O)NCc2ccc(CNC(=O)[C@H]3O[C@H](CC=C)[C@H](OCc4ccccc4)[C@@H](OCc4ccccc4)[C@@H]3OCc3cn([C@@H]4O[C@H](CO)[C@@H](O[C@@H]5O[C@H](CO)[C@H](O)[C@H](O)[C@H]5O)[C@H](O)[C@H]4O)nn3)cc2)[C@H](OCc2cn([C@@H]3O[C@H](CO)[C@@H](O[C@@H]4O[C@H](CO)[C@H](O)[C@H](O)[C@H]4O)[C@H](O)[C@H]3O)nn2)[C@@H](OCc2ccccc2)[C@@H]1OCc1ccccc1; 5
O=C1NCc2ccc(cc2)CNC(=O)[C@@H]2O[C@@H](C/C=C/C[C@H]3O[C@H]1[C@@H](OCc1cn([C@@H]4O[C@H](CO)[C@@H](O[C@@H]5O[C@H](CO)[C@H](O)[C@H](O)[C@H]5O)[C@H](O)[C@H]4O)nn1)[C@H](OCc1ccccc1)[C@H]3OCc1ccccc1)[C@@H](OCc1ccccc1)[C@H](OCc1ccccc1)[C@H]2OCc1cn([C@@H]2O[C@H](CO)[C@@H](O[C@@H]3O[C@H](CO)[C@H](O)[C@H](O)[C@H]3O)[C@H](O)[C@H]2O)nn1; 5.3

The value of IC50 measured for the compound O=C(/C=C/C(=O)N[C@@H]1O[C@H](CO)[C@@H](O[C@@H]2O[C@H](CO)[C@H](O)[C@H](O)[C@H]2O)[C@H](O)[C@H]1O)N[C@@H]1O[C@H](CO)[C@@H](O[C@@H]2O[C@H](CO)[C@H](O)[C@H](O)[C@H]2O)[C@H](O)[C@H]1O turned out to be 4.2

The value of IC50 measured for the compound OC[C@H]1O[C@@H](O[C@H]2[C@H](O)[C@@H](O)[C@H](n3cc(-c4ccc(-c5cn([C@@H]6O[C@H](CO)[C@@H](O[C@@H]7O[C@H](CO)[C@H](O)[C@H](O)[C@H]7O)[C@H](O)[C@H]6O)nn5)cc4)nn3)O[C@@H]2CO)[C@H](O)[C@@H](O)[C@H]1O turned out to be 3.1
